The measured values listed here are drawn from patent US8450308B2.

target or test system: truncated human beta-secretase (residues 1-458, His6-tagged at the C-terminus) (Homo sapiens)
Construct: truncated human beta-secretase (residues 1-458, His6-tagged at the C-terminus); His6 (C); made in house; host or cells: insect cells D. melanogaster S2 (baculovirus expression system (so in the source))
run description: BACE fluorescence quench assay
Format: biochemical
measurement type: IC50

>>> result("C=Cc1cccc(-c2ccc3c(c2)C2(CC(c4ccccc4)O3)N=C(N)N(C)C2=O)c1 (centres unmarked) [Compound 22]")
"1 to 5 µM"
>>> result("CN1C(=O)C2(CC(c3ccccc3)Oc3ccc(-c4cccc(NS(C)(=O)=O)c4)cc32)N=C1N (centres unmarked) [Compound 52]")
"5 to 10 µM"
>>> result("CN1C(=O)C2(CC(c3ccccc3)Oc3ccc(-c4ccc(CNS(C)(=O)=O)cc4)cc32)N=C1N (centres unmarked) [Compound 62]")
"10 to 50 µM"
>>> result("CCN(CC)C(=O)c1ccc(-c2ccc3c(c2)C2(CC(c4ccccc4)O3)N=C(N)N(C)C2=O)cc1 (centres unmarked) [Compound 71]")
"10 to 50 µM"
>>> result("COc1cccc(-c2ccc3c(c2)C2(CC(c4ccccc4)O3)N=C(N)N(C)C2=O)c1 (centres unmarked) [Compound 13]")
"0.1 to 0.5 µM"
>>> result("CN1C(=O)C2(CC(c3ccccc3)Oc3ccc(-c4cncc(C#N)c4)cc32)N=C1N (centres unmarked) [Compound 5]")
"0.1 to 0.5 µM"
>>> result("CN1C(=O)C2(CC(c3ccccc3)Oc3ccc(-c4cccc(S(=O)(=O)N(C)C)c4)cc32)N=C1N (centres unmarked) [Compound 45]")
"5 to 10 µM"
>>> result("CN1C(=O)C2(CC(c3ccccc3)Oc3ccc(-c4cccnc4)cc32)N=C1N (centres unmarked) [Compound 15]")
"0.5 to 1 µM"
>>> result("CC(=O)NCc1cccc(-c2ccc3c(c2)C2(CC(c4ccccc4)O3)N=C(N)N(C)C2=O)c1 (centres unmarked) [Compound 43]")
"5 to 10 µM"
>>> result("CN1C(=O)[C@@]2(C[C@H](c3ccccc3)Oc3ccc(Br)cc32)N=C1N (racemic) [Compound 44a]")
"5 to 10 µM"
>>> result("CC(=O)Nc1cccc(-c2ccc3c(c2)C2(CC(c4ccccc4)O3)N=C(N)N(C)C2=O)c1 (centres unmarked) [Compound 41]")
"1 to 5 µM"

###

Quick reference: IC50 of the listed items.
target or test system: truncated human beta-secretase (residues 1-458, His6-tagged at the C-terminus) (Homo sapiens, UniProt P56817)
Construct: truncated human beta-secretase (residues 1-458, His6-tagged at the C-terminus); His6 (C); made in house; host or cells: insect cells D. melanogaster S2 (baculovirus expression system (so in the source))
Sequence (P56817 22-458): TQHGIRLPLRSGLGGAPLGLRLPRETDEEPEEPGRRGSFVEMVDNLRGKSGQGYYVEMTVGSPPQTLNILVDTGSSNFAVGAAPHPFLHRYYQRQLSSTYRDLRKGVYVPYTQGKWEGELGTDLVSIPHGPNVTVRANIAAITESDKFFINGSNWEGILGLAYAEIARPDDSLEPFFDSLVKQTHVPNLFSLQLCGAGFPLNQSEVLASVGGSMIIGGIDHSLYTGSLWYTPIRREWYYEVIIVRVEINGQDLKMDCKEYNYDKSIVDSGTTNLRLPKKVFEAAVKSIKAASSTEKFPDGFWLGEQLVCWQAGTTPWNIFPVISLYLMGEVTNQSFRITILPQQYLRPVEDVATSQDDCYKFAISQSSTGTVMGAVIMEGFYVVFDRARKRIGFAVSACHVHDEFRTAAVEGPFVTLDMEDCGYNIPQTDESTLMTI
run description: BACE fluorescence quench assay
Type: biochemical
assay conditions: in vitro enzyme activity, BACE fluorescence assay, pH 4.5; read-out: IC50
measurement type: IC50

>>> result("CN1C(=O)[C@@]2(C[C@@]3(CCCOC3)Oc3ccc(-c4cccc(Cl)c4)cc32)N=C1N")
"100 to 500 nM"
>>> result("CN1C(=O)C2(CC(c3ccccc3)Oc3ccc(-c4cccc(C#N)c4)cc32)N=C1N (stereo not shown)")
"100 to 500 nM"
>>> result("CN1OC2(CC(C3CCCOC3)Oc3ccc(-c4cncnc4)cc32)N=C1N (stereo not shown)")
"1000 to 5000 nM"
>>> result("CN1OC2(CC(c3ccccn3)Oc3ccc(-c4cccc(C#N)c4)cc32)N=C1N (stereo not shown)")
"5000 to 10000 nM"
>>> result("CCOC(=O)c1cccc(-c2ccc3c(c2)[C@]2(C[C@@]4(CCCOC4)O3)N=C(N)N(C)C2=O)c1")
"1000 to 5000 nM"
>>> result("CN1C(=O)[C@@]2(C[C@@]3(CCCOC3)Oc3ccc(-c4ccco4)cc32)N=C1N")
"10000 to 50000 nM"
>>> result("CN1OC2(CC(C3CCOC(C)(C)C3)Oc3ccc(-c4ccc5cn[nH]c5c4)cc32)N=C1N (stereo not shown)")
"500 to 1000 nM"
